Where do the numbers come from? From patent US20190307843A1.

# measurementNotes: In vivo tissue distribution in SD rats after 5 mg/kg IV
# condition: Sprague-Dawley, rat, plasma, read-out: t1/2 in plasma (converted)
Starred links: 1 amine or outer side, 2 acyl side, 3 side chain; linkers in the order of their positions; H or OH if unused. Positions of bridges follow the written chain, without caps; N, C: chain ends. Non-standard residues stand in square brackets, D forms with d. Residues, ends and D or L forms follow the SMILES beside them. *: point of attachment. Orn(4R-OH,5R-OCH2CH2NMe3+) = C[N+](C)(C)CCO[C@@H](N[*:3])[C@H](O)C[C@H](N[*:1])C(=O)[*:2]; pTerphenylCO(4''-OnC5H11) = CCCCCOc1ccc(-c2ccc(-c3ccc(C(=O)*)cc3)cc2)cc1; hTyr(3S-OH,4S-OH) = N[C@H](C(=O)O)[C@H](O)[C@@H](O)c1ccc(O)cc1; Pro(3S-OH,4S-Me) = C[C@H]1CN[C@H](C(=O)O)[C@H]1O; Hyp = O=C(O)[C@@H]1C[C@@H](O)CN1
metricName: half-life (min)
// return numeric value only (unit: min, not printed)

Notebook: CCCCCOc1ccc(-c2ccc(-c3ccc(C(=O)N[C@H]4C[C@@H](O)[C@@H](OCC[N+](C)(C)C)NC(=O)[C@@H]5[C@@H](O)[C@@H](C)CN5C(=O)[C@H]([C@@H](C)O)NC(=O)[C@H]([C@H](O)[C@@H](O)c5ccc(O)cc5)NC(=O)[C@@H]5C[C@@H](O)CN5C(=O)[C@H]([C@@H](C)O)NC4=O)cc3)cc2)cc1 [CD101] ({pTerphenylCO(4''-OnC5H11)}-[Orn(4R-OH,5R-OCH2CH2NMe3+)]T[Hyp][hTyr(3S-OH,4S-OH)]T[Pro(3S-OH,4S-Me)]; lactam 1-C) , half-life read as 2340

---

# measurementNotes: Pharmacokinetic profile in female rats, 10 mg/kg IV and SC
# condition: rat, in vivo, sc
Starred links: 1 amine or outer side, 2 acyl side, 3 side chain; linkers in the order of their positions; H or OH if unused. Positions of bridges follow the written chain, without caps; N, C: chain ends. Non-standard residues stand in square brackets, D forms with d. Residues, ends and D or L forms follow the SMILES beside them. *: point of attachment. Orn(4R-OH,5R-OCH2CH2NMe3+) = C[N+](C)(C)CCO[C@@H](N[*:3])[C@H](O)C[C@H](N[*:1])C(=O)[*:2]; pTerphenylCO(4''-OnC5H11) = CCCCCOc1ccc(-c2ccc(-c3ccc(C(=O)*)cc3)cc2)cc1; hTyr(3S-OH,4S-OH) = N[C@H](C(=O)O)[C@H](O)[C@@H](O)c1ccc(O)cc1; Pro(3S-OH,4S-Me) = C[C@H]1CN[C@H](C(=O)O)[C@H]1O; Hyp = O=C(O)[C@@H]1C[C@@H](O)CN1
metricName: bioavailability (%)
// return numeric value only (unit: %, not printed)

Notebook: CCCCCOc1ccc(-c2ccc(-c3ccc(C(=O)N[C@H]4C[C@@H](O)[C@@H](OCC[N+](C)(C)C)NC(=O)[C@@H]5[C@@H](O)[C@@H](C)CN5C(=O)[C@H]([C@@H](C)O)NC(=O)[C@H]([C@H](O)[C@@H](O)c5ccc(O)cc5)NC(=O)[C@@H]5C[C@@H](O)CN5C(=O)[C@H]([C@@H](C)O)NC4=O)cc3)cc2)cc1 [CD101] ({pTerphenylCO(4''-OnC5H11)}-[Orn(4R-OH,5R-OCH2CH2NMe3+)]T[Hyp][hTyr(3S-OH,4S-OH)]T[Pro(3S-OH,4S-Me)]; lactam 1-C) , bioavailability read as 97

---

# measurementNotes: Pharmacokinetics of CD101 after single 30 mg/kg SC (vs IV) dose in monkeys
# Type: in vivo
# condition: male, cynomolgus monkey, plasma; animal 9697, M; 30 mg/kg SC
Starred links: 1 amine or outer side, 2 acyl side, 3 side chain; linkers in the order of their positions; H or OH if unused. Positions of bridges follow the written chain, without caps; N, C: chain ends. Non-standard residues stand in square brackets, D forms with d. Residues, ends and D or L forms follow the SMILES beside them. *: point of attachment. Orn(4R-OH,5R-OCH2CH2NMe3+) = C[N+](C)(C)CCO[C@@H](N[*:3])[C@H](O)C[C@H](N[*:1])C(=O)[*:2]; pTerphenylCO(4''-OnC5H11) = CCCCCOc1ccc(-c2ccc(-c3ccc(C(=O)*)cc3)cc2)cc1; hTyr(3S-OH,4S-OH) = N[C@H](C(=O)O)[C@H](O)[C@@H](O)c1ccc(O)cc1; Pro(3S-OH,4S-Me) = C[C@H]1CN[C@H](C(=O)O)[C@H]1O; Hyp = O=C(O)[C@@H]1C[C@@H](O)CN1
metricName: AUC(0-t) (µg·h/mL)
// return numeric value only (unit: µg·h/mL, not printed)

Notebook: CCCCCOc1ccc(-c2ccc(-c3ccc(C(=O)N[C@H]4C[C@@H](O)[C@@H](OCC[N+](C)(C)C)NC(=O)[C@@H]5[C@@H](O)[C@@H](C)CN5C(=O)[C@H]([C@@H](C)O)NC(=O)[C@H]([C@H](O)[C@@H](O)c5ccc(O)cc5)NC(=O)[C@@H]5C[C@@H](O)CN5C(=O)[C@H]([C@@H](C)O)NC4=O)cc3)cc2)cc1 [CD101] ({pTerphenylCO(4''-OnC5H11)}-[Orn(4R-OH,5R-OCH2CH2NMe3+)]T[Hyp][hTyr(3S-OH,4S-OH)]T[Pro(3S-OH,4S-Me)]; lactam 1-C) , AUC(0-t) read as 2740

---

# measurementNotes: Pharmacokinetics of CD101 after single 30 mg/kg SC (vs IV) dose in monkeys
# Format: in vivo
# condition: female, cynomolgus monkey, plasma; animal 9707, F; 30 mg/kg SC
Starred links: 1 amine or outer side, 2 acyl side, 3 side chain; linkers in the order of their positions; H or OH if unused. Positions of bridges follow the written chain, without caps; N, C: chain ends. Non-standard residues stand in square brackets, D forms with d. Residues, ends and D or L forms follow the SMILES beside them. *: point of attachment. Orn(4R-OH,5R-OCH2CH2NMe3+) = C[N+](C)(C)CCO[C@@H](N[*:3])[C@H](O)C[C@H](N[*:1])C(=O)[*:2]; pTerphenylCO(4''-OnC5H11) = CCCCCOc1ccc(-c2ccc(-c3ccc(C(=O)*)cc3)cc2)cc1; hTyr(3S-OH,4S-OH) = N[C@H](C(=O)O)[C@H](O)[C@@H](O)c1ccc(O)cc1; Pro(3S-OH,4S-Me) = C[C@H]1CN[C@H](C(=O)O)[C@H]1O; Hyp = O=C(O)[C@@H]1C[C@@H](O)CN1
metricName: AUC(0-t)
Write the numeric value and append its unit.

Notebook: CCCCCOc1ccc(-c2ccc(-c3ccc(C(=O)N[C@H]4C[C@@H](O)[C@@H](OCC[N+](C)(C)C)NC(=O)[C@@H]5[C@@H](O)[C@@H](C)CN5C(=O)[C@H]([C@@H](C)O)NC(=O)[C@H]([C@H](O)[C@@H](O)c5ccc(O)cc5)NC(=O)[C@@H]5C[C@@H](O)CN5C(=O)[C@H]([C@@H](C)O)NC4=O)cc3)cc2)cc1 [CD101] ({pTerphenylCO(4''-OnC5H11)}-[Orn(4R-OH,5R-OCH2CH2NMe3+)]T[Hyp][hTyr(3S-OH,4S-OH)]T[Pro(3S-OH,4S-Me)]; lactam 1-C) , AUC(0-t) read as 2180 µg·h/mL

---

# measurementNotes: Plasma and lung epithelial lining fluid (ELF) concentrations in ICR mice, 20 mg/kg IP
# Type: in vivo, mouse
# condition: ICR, mouse, lung epithelial lining fluid (ELF), ip, 20 mg/kg, 20 mg/kg IP; read-out: ELF half-life (converted)
Starred links: 1 amine or outer side, 2 acyl side, 3 side chain; linkers in the order of their positions; H or OH if unused. Positions of bridges follow the written chain, without caps; N, C: chain ends. Non-standard residues stand in square brackets, D forms with d. Residues, ends and D or L forms follow the SMILES beside them. *: point of attachment. Orn(4R-OH,5R-OCH2CH2NMe3+) = C[N+](C)(C)CCO[C@@H](N[*:3])[C@H](O)C[C@H](N[*:1])C(=O)[*:2]; pTerphenylCO(4''-OnC5H11) = CCCCCOc1ccc(-c2ccc(-c3ccc(C(=O)*)cc3)cc2)cc1; hTyr(3S-OH,4S-OH) = N[C@H](C(=O)O)[C@H](O)[C@@H](O)c1ccc(O)cc1; Pro(3S-OH,4S-Me) = C[C@H]1CN[C@H](C(=O)O)[C@H]1O; Hyp = O=C(O)[C@@H]1C[C@@H](O)CN1
metricName: half-life (h)
// return numeric value only (unit: h, not printed)

Notebook: CCCCCOc1ccc(-c2ccc(-c3ccc(C(=O)N[C@H]4C[C@@H](O)[C@@H](OCC[N+](C)(C)C)NC(=O)[C@@H]5[C@@H](O)[C@@H](C)CN5C(=O)[C@H]([C@@H](C)O)NC(=O)[C@H]([C@H](O)[C@@H](O)c5ccc(O)cc5)NC(=O)[C@@H]5C[C@@H](O)CN5C(=O)[C@H]([C@@H](C)O)NC4=O)cc3)cc2)cc1 [CD101] ({pTerphenylCO(4''-OnC5H11)}-[Orn(4R-OH,5R-OCH2CH2NMe3+)]T[Hyp][hTyr(3S-OH,4S-OH)]T[Pro(3S-OH,4S-Me)]; lactam 1-C) , half-life read as 31.9
